Reference source: the supplement of paper PMC10646978

Tested on: RAW-Dual (murine macrophage reporter line)
ASSAY EXPLANATION: viability score (confluency relative to resting cells, overnight) (fraction); higher = more viable, active = viable (0.7 or more)
EXPERIMENTAL CONDITIONS: modulator concentration 10 µM
Measured viability score by item
REPORTED METRIC: viability score

> print(dat)
                                    compound  measured
 1  CCN(CC)C(=O)/C(C#N)=C/c1cc(O)c(O)c([N+](=O)[O-])c1     0.992
 2  CCn1cc(C(=O)NN)c(=O)c2cc(F)c(N3CCCCCC3)cc21      1.01
 3  Cc1ccc(S(=O)(=O)Nc2ccccc2-c2nc3ccccc3o2)cc1     0.713
 4  CCOC(=O)N1CCC(=C2c3ccc(Cl)cc3CCc3cccnc32)CC1     0.989
 5  Cc1ccc(C2(c3ccc(C)cc3)CC2C(=O)Nc2ccncc2)cc1 (stereo not drawn)         1
 6  COc1ccc2c(Cl)c(C(=O)N3CCc4ccccc4C3)sc2c1      1.01
 7                     Nc1ccc(OCc2ccccc2)cc1      1.01
 8  O=C(Oc1coc(CSc2ncccn2)cc1=O)c1ccc([N+](=O)[O-])cc1     0.986
 9  CN[C@H]1CC[C@@H](c2ccc(Cl)c(Cl)c2)c2ccccc21.Cl     0.258
10            Cc1[nH]c(=O)c(C#N)cc1-c1ccncc1      0.99
11  Cc1cn([C@H]2C=C[C@@H](CO)O2)c(=O)[nH]c1=O     0.998
12            CC12CC3CC(C1)CC(CC(=O)O)(C3)C2     0.526
13  Cc1cc(CCNS(=O)(=O)c2cccc(C(F)(F)F)c2)nn1C         1
14     COc1ccc(C(=O)NCCOc2cc(C)cc(C)c2)cc1OC      1.01
15  COc1ccc(S(=O)(=O)Nc2ccc(Oc3ccccc3)cc2)cc1      1.01
16  Br.COc1ccc2c3c1O[C@H]1C[C@@H](O)C=C[C@@]31CCN(C)C2      1.01
17  Cc1ccc(OCC(=O)N2CCN(c3ccc(-n4cncn4)nn3)CC2)c(C(C)(C)C)c1     0.999
18                   O.S=c1nc[nH]c2nc[nH]c12     0.994
